SYSTEM UNDER TEST: Peroxisome proliferator-activated receptor gamma (Homo sapiens, UniProt P37231)
Sequence (P37231 whole entry): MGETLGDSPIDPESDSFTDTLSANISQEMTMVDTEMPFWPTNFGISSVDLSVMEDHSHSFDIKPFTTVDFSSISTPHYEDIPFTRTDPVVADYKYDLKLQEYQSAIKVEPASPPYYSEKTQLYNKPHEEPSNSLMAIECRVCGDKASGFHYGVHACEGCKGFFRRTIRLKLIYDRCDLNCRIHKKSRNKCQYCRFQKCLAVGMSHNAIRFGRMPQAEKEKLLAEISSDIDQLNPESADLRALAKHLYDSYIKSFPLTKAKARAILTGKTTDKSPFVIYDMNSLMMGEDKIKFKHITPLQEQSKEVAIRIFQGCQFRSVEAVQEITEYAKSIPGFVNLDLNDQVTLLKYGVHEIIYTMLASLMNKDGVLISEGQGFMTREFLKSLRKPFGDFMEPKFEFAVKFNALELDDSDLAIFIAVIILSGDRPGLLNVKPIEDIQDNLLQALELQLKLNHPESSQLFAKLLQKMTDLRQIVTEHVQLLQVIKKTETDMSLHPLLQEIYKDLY
Type: cell-based, 293T
RUN CONDITIONS: read-out: EC50
ASSAY ENDPOINT: EC50

Look up EC50 for the entries below, preserving their order.
1. Cc1cc(OCc2nc(-c3ccc(C(=O)N(C)C)cc3)c(-c3ccc(OC(F)(F)F)cc3)s2)ccc1OCC(=O)O
2. CCCc1ccc(-c2oc(COc3ccc(OCC(=O)O)c(C)c3)nc2-c2ccc(OC)cc2)cc1
3. Cc1cc(OCc2nc(-c3cnc(OC(C)C)nc3)c(-c3ccc(OC(F)(F)F)cc3)o2)ccc1OCC(=O)O
4. COc1ccc(-c2nc(COc3ccc(OCC(=O)O)c(C)c3)oc2-c2ccc(OC)cc2)cc1
5. COc1ccc(-c2nc(Sc3ccc(CC(=O)O)cc3Cl)sc2-c2ccc(OC)cc2)cc1
6. COc1ccc(-c2nc(Sc3cccc(C(C)C(=O)O)c3)sc2-c2ccc(OC)cc2)cc1 (centres undefined)

1: > 10 µM; 2: > 10 µM; 3: 0.98 µM; 4: > 10 µM; 5: > 10 µM; 6: 2.3 µM

Look up EC50 for the entries below, preserving their order.
1. CCCOc1ccc(-c2nc(COc3ccc(OCC(=O)O)c(C)c3)sc2-c2ccc(OC(F)(F)F)cc2)cc1
2. COc1ccc(-c2nc(COc3ccccc3OCC(=O)O)sc2-c2ccc(C(F)(F)F)cc2)cc1
3. COc1ccc(-c2sc(COc3ccc(OCC(=O)O)c(C)c3)nc2C)cc1

["> 10 µM", "> 10 µM", "> 10 µM"]

----------
Assignment: determine reported pEC50 for the given compounds.
SYSTEM UNDER TEST: Peroxisome proliferator-activated receptor alpha (Homo sapiens)
Sequence (Q07869 whole entry): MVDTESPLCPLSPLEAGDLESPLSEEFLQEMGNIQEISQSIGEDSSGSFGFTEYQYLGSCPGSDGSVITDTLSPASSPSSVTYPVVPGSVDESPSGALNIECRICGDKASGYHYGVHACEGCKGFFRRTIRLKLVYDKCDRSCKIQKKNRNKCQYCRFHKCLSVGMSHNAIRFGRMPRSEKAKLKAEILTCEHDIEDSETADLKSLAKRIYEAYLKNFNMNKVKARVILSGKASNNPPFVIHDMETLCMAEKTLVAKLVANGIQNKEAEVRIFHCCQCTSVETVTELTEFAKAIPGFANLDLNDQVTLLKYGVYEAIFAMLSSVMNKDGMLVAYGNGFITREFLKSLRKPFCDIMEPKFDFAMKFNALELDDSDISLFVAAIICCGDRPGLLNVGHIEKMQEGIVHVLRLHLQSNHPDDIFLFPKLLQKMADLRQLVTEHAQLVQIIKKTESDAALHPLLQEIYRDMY
ASSAY NOTES: Agonist activity at human PPARalpha ligand binding domain expressed in human 293T cells co-transfected with Gal4-DBD by luciferase transactivation assay
Type: cell-based
RUN CONDITIONS: read-out: EC50
pEC50: −log10 of the molar value.

Look over these answered cases.
Please report the recorded pEC50 for COc1ccc(-c2nc(COc3ccc(OCC(=O)O)cc3)sc2-c2ccc(C(F)(F)F)cc2)cc1 .
< 5.00

Please report the recorded pEC50 for COc1ccc(-c2nc(COc3ccc(OC(C)(C)C(=O)O)cc3)sc2-c2ccc(C(F)(F)F)cc2)cc1 .
< 5.00

Please report the recorded pEC50 for Cc1cc(OCc2nc(-c3cnc(N4CCOCC4)nc3)c(-c3ccc(OC(F)(F)F)cc3)o2)ccc1OCC(=O)O .
6.39

Look up pEC50 for the entries below, preserving their order.
1. Cc1cc(OCc2nc(-c3ccc(C(F)(F)F)cc3)c(C)s2)ccc1OCC(=O)O
2. COc1ccc(-c2nc(COc3ccc(OCC(=O)O)c(C)c3)sc2-c2ccc(Cl)nc2)cc1
3. Cc1cc(OCc2nc(-c3cnc(OC(C)C)nc3)c(-c3ccc(OC(F)(F)F)cc3)s2)ccc1OCC(=O)O
4. Cc1cc(OCc2nc(-c3ccc(OC(C)C)nc3)c(-c3ccc(OC(F)(F)F)cc3)s2)ccc1OCC(=O)O

< 5.00
< 5.00
< 5.00
< 5.00

----------
Assignment: determine reported pEC50 for the given molecules.
SYSTEM UNDER TEST: Peroxisome proliferator-activated receptor delta (Homo sapiens, UniProt Q03181)
Sequence (Q03181 whole entry): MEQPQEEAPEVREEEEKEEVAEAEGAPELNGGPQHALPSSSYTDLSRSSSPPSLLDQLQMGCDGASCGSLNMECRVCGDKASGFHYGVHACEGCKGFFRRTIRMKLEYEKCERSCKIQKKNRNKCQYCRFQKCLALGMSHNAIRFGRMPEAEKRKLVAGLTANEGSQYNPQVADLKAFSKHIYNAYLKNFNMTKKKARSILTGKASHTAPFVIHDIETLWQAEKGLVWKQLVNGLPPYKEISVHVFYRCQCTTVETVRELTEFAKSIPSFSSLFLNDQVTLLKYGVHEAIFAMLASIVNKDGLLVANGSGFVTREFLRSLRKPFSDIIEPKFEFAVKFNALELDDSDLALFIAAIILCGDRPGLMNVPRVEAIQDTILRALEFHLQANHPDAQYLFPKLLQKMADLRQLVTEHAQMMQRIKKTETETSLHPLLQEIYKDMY
Give bare numbers, as −log10 of the molar value.

Look over these answered cases.
Please report the recorded pEC50 for Cc1cc(OCc2nc(-c3cncnc3)c(-c3ccc(OC(F)(F)F)cc3)s2)ccc1OCC(=O)O .
7.23

Please report the recorded pEC50 for Cc1cc(OCc2nc(-c3ccc(Cl)cc3)c(-c3ccc(Cl)cc3)s2)ccc1OCC(=O)O .
6.29

Please report the recorded pEC50 for Cc1cc(OCc2nc(-c3ccc(OCC(C)C)cc3)c(-c3ccc(OC(F)(F)F)cc3)s2)ccc1OCC(=O)O .
7.20

Please report the recorded pEC50 for COc1ccc(-c2nc(COc3ccc(OCC(=O)O)c(C)c3)oc2-c2ccc(Cl)c(Cl)c2)cc1 .
7.15

Please report the recorded pEC50 for Cc1cc(CN(CC(=O)Nc2ccc(Cl)cc2Cl)C2CCCCC2)ccc1OCC(=O)O .
8.52

Look up pEC50 for the entries below, preserving their order.
1. Cc1cc(OCc2nc(-c3ccc(C(=O)N4CCCCC4)cc3)c(-c3ccc(OC(F)(F)F)cc3)s2)ccc1OCC(=O)O
2. COc1ccc(-c2nc(COc3ccc(OCC(=O)O)c(C)c3)oc2-c2ccc(C(F)(F)F)cc2)cc1
3. COc1ccc(-c2nc(SCc3ccc(OCC(=O)O)c(C)c3)sc2-c2ccc(OC)cc2)cc1

1: 8.22; 2: 8.00; 3: 5.25

----------
SYSTEM UNDER TEST: Peroxisome proliferator-activated receptor delta (Homo sapiens, UniProt Q03181)
Quick rule for you: EC50 under 70 nM gets Y, anything else gets N.

Worked cases, answers included:
Consider Cc1cc(OCc2nc(-c3ccc(-c4ccccc4)cc3)cs2)ccc1OCC(=O)O . Does its EC50 lie strictly below 70 nM?
N

Consider COc1ccc(-c2nc(COc3ccc(OCC(=O)O)c(C)c3)oc2-c2ccc(OC(F)(F)F)cc2)cc1 . Does its EC50 lie strictly below 70 nM?
Y

Consider CCOC(Cc1ccc(OCc2nc(-c3ccc(OC)cc3)c(-c3ccc(C(F)(F)F)cc3)s2)cc1)C(=O)O (stereo not given) . Does its EC50 lie strictly below 70 nM?
N

Consider COc1ccc(-c2nc(COc3ccc(OCC(=O)O)c(C)c3)sc2-c2ccc3ccccc3c2)cc1 . Does its EC50 lie strictly below 70 nM?
Y

Consider COc1ccc(-c2nc(COc3ccc(OCC(=O)O)c(C)c3)oc2-c2cccc(C(F)(F)F)c2)cc1 . Does its EC50 lie strictly below 70 nM?
N

Consider COc1ccc(-c2nc(CSc3ccc(OCC(=O)O)c(C)c3)sc2-c2ccc(C(F)(F)F)cc2)cc1 . Does its EC50 lie strictly below 70 nM?
N

Consider Cc1cc(OCc2nc(-c3ccc(N4CCCC4)cc3)c(-c3ccc(OC(F)(F)F)cc3)s2)ccc1OCC(=O)O . Does its EC50 lie strictly below 70 nM?
N

Consider CCCc1ccc(-c2oc(COc3ccc(OCC(=O)O)c(C)c3)nc2-c2ccc(OC)cc2)cc1 . Does its EC50 lie strictly below 70 nM?
Y

Consider Cc1cc(OCc2nc(C)c(-c3ccc(Cl)cc3)s2)ccc1OCC(=O)O . Does its EC50 lie strictly below 70 nM?
N

Consider Cc1cc(OCc2nc(-c3ccc(OC(C)C)cc3)c(-c3ccc(C(F)(F)F)cc3)s2)ccc1OCC(=O)O . Does its EC50 lie strictly below 70 nM?
Y

Next:
Consider Cc1cc(OCc2nc(-c3ccc(N4CCOCC4)nc3)c(-c3ccc(OC(F)(F)F)cc3)o2)ccc1OCC(=O)O . Does its EC50 lie strictly below 70 nM?
Y

Consider Cc1cc(OCc2nc(-c3ccc(Cl)cc3)c(-c3ccccc3)s2)ccc1OCC(=O)O . Does its EC50 lie strictly below 70 nM?
N

Consider COc1ccc(-c2nc(COc3ccc(OCC(=O)O)c(C)c3)sc2-c2ccccc2C(F)(F)F)cc1 . Does its EC50 lie strictly below 70 nM?
N
